- Assayed Target: PIM3 (Homo sapiens)
- Test Description: Kinase profiling (radiometric filter-binding)
- Assay type: biochemical
- Measurement Conditions: PIM3, 1 µM inhibitor; read-out: Residual activity, %
Square brackets hold non-standard residues; d marks the D form. Peptide text beside a SMILES is read from it. * marks the point of attachment. X3 = O=C(CCCCCNCc1nc2c(sc3cc(Br)cnc32)c(=O)[nH]1)*
Property Name: remaining activity at 1 µM (%)
// return numeric value only (unit: %, not printed)

State its remaining activity at 1 µM on PIM3 (Homo sapiens): N=C(N)NCCC[C@@H](NC(=O)CNC(=O)[C@@H](CCCNC(=N)N)NC(=O)[C@@H](CCCNC(=N)N)NC(=O)CCCCCCCNCc1nc2c(sc3cc(Br)cnc32)c(=O)[nH]1)C(=O)N[C@H](CCCCN)C(N)=O [Compound 1, BPTP-Aoc-(D-Arg)2-Gly-D-Arg-D-Lys-NH2]
17

State its remaining activity at 1 µM on PIM3 (Homo sapiens): N=C(N)NCCC[C@@H](NC(=O)CCCCCNCc1nc2c(sc3cc(Br)cnc32)c(=O)[nH]1)C(=O)N[C@H](CCCNC(=N)N)C(=O)N[C@H](CCCNC(=N)N)C(=O)N[C@H](CCCNC(=N)N)C(=O)N[C@H](CCCNC(=N)N)C(=O)N[C@H](CCCNC(=N)N)C(=O)N[C@H](CCCCN)C(N)=O [ARC-3126, BPTP-Ahx-(D-Arg)6-D-Lys-NH2] (X3-[dR][dR][dR][dR][dR][dR][dK]-NH2)
13

State its remaining activity at 1 µM on PIM3 (Homo sapiens): N=C(N)NCCC[C@@H](NC(=O)CNC(=O)[C@@H](CCCNC(=N)N)NC(=O)[C@@H](CCCNC(=N)N)NC(=O)CCCCCCCNCc1nc2c(sc3ccc(Br)cc32)c(=O)[nH]1)C(=O)N[C@H](CCCCN)C(N)=O [Compound 2, BBTP-Aoc-(D-Arg)2-Gly-D-Arg-D-Lys-NH2]
4

State its remaining activity at 1 µM on PIM3 (Homo sapiens): N=C(N)NCCC[C@@H](NC(=O)CCCCCNC(=O)Cn1cnc2c(I)c(I)c(I)c(I)c21)C(=O)N[C@H](CCCNC(=N)N)C(=O)N[C@H](CCCNC(=N)N)C(=O)N[C@H](CCCNC(=N)N)C(=O)N[C@H](CCCNC(=N)N)C(=O)N[C@H](CCCNC(=N)N)C(=O)N[C@H](CCCCN)C(N)=O [ARC-3125, TIBI-CH2-C(=O)-Ahx-(D-Arg)6-D-Lys-NH2]
7

State its remaining activity at 1 µM on PIM3 (Homo sapiens): N=C(N)NCCC[C@@H](NC(=O)CNC(=O)[C@@H](CCCNC(=N)N)NC(=O)[C@@H](CCCNC(=N)N)NC(=O)Cn1cc(CNCc2nc3c(sc4ccc(Br)cc43)c(=O)[nH]2)nn1)C(=O)N[C@H](CCCCN)C(N)=O [Compound 3, BBTP-Amt-(D-Arg)2-Gly-D-Arg-D-Lys-NH2]
6

* * *

- Assayed Target: PAK4 (Homo sapiens, UniProt O96013)
- Sequence (O96013 whole entry): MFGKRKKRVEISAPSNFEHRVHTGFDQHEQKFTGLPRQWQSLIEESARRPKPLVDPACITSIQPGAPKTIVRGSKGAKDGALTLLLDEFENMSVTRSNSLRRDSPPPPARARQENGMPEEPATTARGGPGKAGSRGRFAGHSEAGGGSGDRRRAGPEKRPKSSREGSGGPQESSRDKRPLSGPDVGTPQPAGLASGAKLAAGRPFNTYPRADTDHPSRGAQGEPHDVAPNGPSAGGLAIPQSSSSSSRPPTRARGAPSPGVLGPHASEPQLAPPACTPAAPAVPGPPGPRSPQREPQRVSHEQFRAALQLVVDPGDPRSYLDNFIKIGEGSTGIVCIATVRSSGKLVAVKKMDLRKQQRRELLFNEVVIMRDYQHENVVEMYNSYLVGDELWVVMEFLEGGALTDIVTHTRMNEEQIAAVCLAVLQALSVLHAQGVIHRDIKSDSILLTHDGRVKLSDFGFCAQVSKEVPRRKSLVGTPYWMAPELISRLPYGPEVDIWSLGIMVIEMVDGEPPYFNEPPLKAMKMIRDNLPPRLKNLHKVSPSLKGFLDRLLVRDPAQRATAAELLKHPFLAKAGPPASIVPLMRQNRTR
- Test Description: Kinase profiling (radiometric filter-binding)
- Assay type: biochemical
- Measurement Conditions: PAK4, 1 µM inhibitor; read-out: Residual activity, %
- Procedure: Kinase selectivity profiling was performed using the commercial service provided by the MRC PPU International Centre for Kinase Profiling (Dundee, UK) using a radiometric filter-binding assay. Kinases used for analysis were of human origin. The ATP concentration applied for inhibition measurements was at or below the ATP KM value of the particular PK. […] Residual activities were expressed as the percentage of retained activity compared to the control without inhibitor.
Square brackets hold non-standard residues; d marks the D form. Peptide text beside a SMILES is read from it. * marks the point of attachment. X3 = O=C(CCCCCNCc1nc2c(sc3cc(Br)cnc32)c(=O)[nH]1)*
Property Name: remaining activity at 1 µM (%)
// return numeric value only (unit: %, not printed)

For N=C(N)NCCC[C@@H](NC(=O)CNC(=O)[C@@H](CCCNC(=N)N)NC(=O)[C@@H](CCCNC(=N)N)NC(=O)CCCCCCCNCc1nc2c(sc3ccc(Br)cc32)c(=O)[nH]1)C(=O)N[C@H](CCCCN)C(N)=O , what is its reported remaining activity at 1 µM?
98

For N=C(N)NCCC[C@@H](NC(=O)CCCCCNCc1nc2c(sc3cc(Br)cnc32)c(=O)[nH]1)C(=O)N[C@H](CCCNC(=N)N)C(=O)N[C@H](CCCNC(=N)N)C(=O)N[C@H](CCCNC(=N)N)C(=O)N[C@H](CCCNC(=N)N)C(=O)N[C@H](CCCNC(=N)N)C(=O)N[C@H](CCCCN)C(N)=O [ARC-3126, BPTP-Ahx-(D-Arg)6-D-Lys-NH2] (X3-[dR][dR][dR][dR][dR][dR][dK]-NH2) , what is its reported remaining activity at 1 µM?
71

* * *

- Assayed Target: JNK2 (Homo sapiens, UniProt P45984)
- Sequence (P45984 whole entry): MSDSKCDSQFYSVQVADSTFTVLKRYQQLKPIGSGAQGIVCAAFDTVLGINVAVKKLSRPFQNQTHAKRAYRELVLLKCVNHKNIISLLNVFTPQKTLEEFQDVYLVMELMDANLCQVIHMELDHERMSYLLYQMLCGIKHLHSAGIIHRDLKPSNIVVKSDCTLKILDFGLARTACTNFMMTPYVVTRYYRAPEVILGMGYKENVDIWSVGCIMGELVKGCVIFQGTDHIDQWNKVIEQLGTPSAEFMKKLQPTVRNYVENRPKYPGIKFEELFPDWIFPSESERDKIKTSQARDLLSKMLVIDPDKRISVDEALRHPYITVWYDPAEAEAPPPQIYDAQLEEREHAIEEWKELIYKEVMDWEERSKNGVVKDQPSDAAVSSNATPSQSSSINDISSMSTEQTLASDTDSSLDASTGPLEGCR
- Test Description: Kinase profiling (radiometric filter-binding)
- Type: biochemical
- Measurement Conditions: JNK2, 1 µM inhibitor; read-out: Residual activity, %
Square brackets hold non-standard residues; d marks the D form. Peptide text beside a SMILES is read from it. * marks the point of attachment. X3 = O=C(CCCCCNCc1nc2c(sc3cc(Br)cnc32)c(=O)[nH]1)*
Could you please report measured remaining activity at 1 µM for the items listed next?
// return numeric value only (unit: %, not printed)

For N=C(N)NCCC[C@@H](NC(=O)CNC(=O)[C@@H](CCCNC(=N)N)NC(=O)[C@@H](CCCNC(=N)N)NC(=O)CCCCCCCNCc1nc2c(sc3ccc(Br)cc32)c(=O)[nH]1)C(=O)N[C@H](CCCCN)C(N)=O , what is its reported remaining activity at 1 µM?
91

For N=C(N)NCCC[C@@H](NC(=O)CNC(=O)[C@@H](CCCNC(=N)N)NC(=O)[C@@H](CCCNC(=N)N)NC(=O)CCCCCCCNCc1nc2c(sc3cc(Br)cnc32)c(=O)[nH]1)C(=O)N[C@H](CCCCN)C(N)=O , what is its reported remaining activity at 1 µM?
107

For N=C(N)NCCC[C@@H](NC(=O)CCCCCNCc1nc2c(sc3cc(Br)cnc32)c(=O)[nH]1)C(=O)N[C@H](CCCNC(=N)N)C(=O)N[C@H](CCCNC(=N)N)C(=O)N[C@H](CCCNC(=N)N)C(=O)N[C@H](CCCNC(=N)N)C(=O)N[C@H](CCCNC(=N)N)C(=O)N[C@H](CCCCN)C(N)=O [ARC-3126, BPTP-Ahx-(D-Arg)6-D-Lys-NH2] (X3-[dR][dR][dR][dR][dR][dR][dK]-NH2) , what is its reported remaining activity at 1 µM?
38

For N=C(N)NCCC[C@@H](NC(=O)CCCCCNC(=O)Cn1cnc2c(I)c(I)c(I)c(I)c21)C(=O)N[C@H](CCCNC(=N)N)C(=O)N[C@H](CCCNC(=N)N)C(=O)N[C@H](CCCNC(=N)N)C(=O)N[C@H](CCCNC(=N)N)C(=O)N[C@H](CCCNC(=N)N)C(=O)N[C@H](CCCCN)C(N)=O , what is its reported remaining activity at 1 µM?
123

For N=C(N)NCCC[C@@H](NC(=O)CNC(=O)[C@@H](CCCNC(=N)N)NC(=O)[C@@H](CCCNC(=N)N)NC(=O)Cn1cc(CNCc2nc3c(sc4ccc(Br)cc43)c(=O)[nH]2)nn1)C(=O)N[C@H](CCCCN)C(N)=O , what is its reported remaining activity at 1 µM?
129

* * *

- Assayed Target: IKK (Homo sapiens)
- Sequence (Q14164 1-716): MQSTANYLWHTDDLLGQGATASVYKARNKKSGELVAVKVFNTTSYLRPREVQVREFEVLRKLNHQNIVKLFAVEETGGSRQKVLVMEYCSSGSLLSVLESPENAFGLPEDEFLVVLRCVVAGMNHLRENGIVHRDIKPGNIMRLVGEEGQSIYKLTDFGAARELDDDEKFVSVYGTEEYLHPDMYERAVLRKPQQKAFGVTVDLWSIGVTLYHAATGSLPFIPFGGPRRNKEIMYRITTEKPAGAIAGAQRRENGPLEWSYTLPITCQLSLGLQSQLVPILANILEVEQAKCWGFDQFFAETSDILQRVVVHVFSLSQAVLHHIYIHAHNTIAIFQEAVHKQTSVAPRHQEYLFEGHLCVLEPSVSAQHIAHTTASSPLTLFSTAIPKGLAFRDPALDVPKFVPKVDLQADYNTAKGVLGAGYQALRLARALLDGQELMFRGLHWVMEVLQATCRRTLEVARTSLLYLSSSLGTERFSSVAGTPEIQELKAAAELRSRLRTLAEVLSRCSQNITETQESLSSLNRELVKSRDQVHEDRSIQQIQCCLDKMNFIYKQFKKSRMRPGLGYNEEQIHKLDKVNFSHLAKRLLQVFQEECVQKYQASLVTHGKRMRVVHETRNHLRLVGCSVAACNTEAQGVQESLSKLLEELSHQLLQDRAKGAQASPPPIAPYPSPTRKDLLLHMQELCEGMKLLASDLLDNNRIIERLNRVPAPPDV
- Test Description: Kinase profiling (radiometric filter-binding)
- Type: biochemical
- Measurement Conditions: second of two IKK lines (Greek letter lost), 1 µM inhibitor, read-out: Residual activity, %
Square brackets hold non-standard residues; d marks the D form. Peptide text beside a SMILES is read from it. * marks the point of attachment. X3 = O=C(CCCCCNCc1nc2c(sc3cc(Br)cnc32)c(=O)[nH]1)*
Property Name: remaining activity at 1 µM (%)
// return numeric value only (unit: %, not printed)

For N=C(N)NCCC[C@@H](NC(=O)CCCCCNCc1nc2c(sc3cc(Br)cnc32)c(=O)[nH]1)C(=O)N[C@H](CCCNC(=N)N)C(=O)N[C@H](CCCNC(=N)N)C(=O)N[C@H](CCCNC(=N)N)C(=O)N[C@H](CCCNC(=N)N)C(=O)N[C@H](CCCNC(=N)N)C(=O)N[C@H](CCCCN)C(N)=O [ARC-3126, BPTP-Ahx-(D-Arg)6-D-Lys-NH2] (X3-[dR][dR][dR][dR][dR][dR][dK]-NH2) , what is its reported remaining activity at 1 µM?
118

For N=C(N)NCCC[C@@H](NC(=O)CNC(=O)[C@@H](CCCNC(=N)N)NC(=O)[C@@H](CCCNC(=N)N)NC(=O)CCCCCCCNCc1nc2c(sc3cc(Br)cnc32)c(=O)[nH]1)C(=O)N[C@H](CCCCN)C(N)=O , what is its reported remaining activity at 1 µM?
116

For N=C(N)NCCC[C@@H](NC(=O)CNC(=O)[C@@H](CCCNC(=N)N)NC(=O)[C@@H](CCCNC(=N)N)NC(=O)Cn1cc(CNCc2nc3c(sc4ccc(Br)cc43)c(=O)[nH]2)nn1)C(=O)N[C@H](CCCCN)C(N)=O , what is its reported remaining activity at 1 µM?
122

For N=C(N)NCCC[C@@H](NC(=O)CNC(=O)[C@@H](CCCNC(=N)N)NC(=O)[C@@H](CCCNC(=N)N)NC(=O)CCCCCCCNCc1nc2c(sc3ccc(Br)cc32)c(=O)[nH]1)C(=O)N[C@H](CCCCN)C(N)=O , what is its reported remaining activity at 1 µM?
104

For N=C(N)NCCC[C@@H](NC(=O)CCCCCNC(=O)Cn1cnc2c(I)c(I)c(I)c(I)c21)C(=O)N[C@H](CCCNC(=N)N)C(=O)N[C@H](CCCNC(=N)N)C(=O)N[C@H](CCCNC(=N)N)C(=O)N[C@H](CCCNC(=N)N)C(=O)N[C@H](CCCNC(=N)N)C(=O)N[C@H](CCCCN)C(N)=O , what is its reported remaining activity at 1 µM?
77
